Record form. Attribute: inhibition. Fill in for each entry.
system: Epidermal growth factor receptor (Homo sapiens), P00533 [L861Q]; settings: at 0.1 µM
Sequence (P00533 whole entry L861Q): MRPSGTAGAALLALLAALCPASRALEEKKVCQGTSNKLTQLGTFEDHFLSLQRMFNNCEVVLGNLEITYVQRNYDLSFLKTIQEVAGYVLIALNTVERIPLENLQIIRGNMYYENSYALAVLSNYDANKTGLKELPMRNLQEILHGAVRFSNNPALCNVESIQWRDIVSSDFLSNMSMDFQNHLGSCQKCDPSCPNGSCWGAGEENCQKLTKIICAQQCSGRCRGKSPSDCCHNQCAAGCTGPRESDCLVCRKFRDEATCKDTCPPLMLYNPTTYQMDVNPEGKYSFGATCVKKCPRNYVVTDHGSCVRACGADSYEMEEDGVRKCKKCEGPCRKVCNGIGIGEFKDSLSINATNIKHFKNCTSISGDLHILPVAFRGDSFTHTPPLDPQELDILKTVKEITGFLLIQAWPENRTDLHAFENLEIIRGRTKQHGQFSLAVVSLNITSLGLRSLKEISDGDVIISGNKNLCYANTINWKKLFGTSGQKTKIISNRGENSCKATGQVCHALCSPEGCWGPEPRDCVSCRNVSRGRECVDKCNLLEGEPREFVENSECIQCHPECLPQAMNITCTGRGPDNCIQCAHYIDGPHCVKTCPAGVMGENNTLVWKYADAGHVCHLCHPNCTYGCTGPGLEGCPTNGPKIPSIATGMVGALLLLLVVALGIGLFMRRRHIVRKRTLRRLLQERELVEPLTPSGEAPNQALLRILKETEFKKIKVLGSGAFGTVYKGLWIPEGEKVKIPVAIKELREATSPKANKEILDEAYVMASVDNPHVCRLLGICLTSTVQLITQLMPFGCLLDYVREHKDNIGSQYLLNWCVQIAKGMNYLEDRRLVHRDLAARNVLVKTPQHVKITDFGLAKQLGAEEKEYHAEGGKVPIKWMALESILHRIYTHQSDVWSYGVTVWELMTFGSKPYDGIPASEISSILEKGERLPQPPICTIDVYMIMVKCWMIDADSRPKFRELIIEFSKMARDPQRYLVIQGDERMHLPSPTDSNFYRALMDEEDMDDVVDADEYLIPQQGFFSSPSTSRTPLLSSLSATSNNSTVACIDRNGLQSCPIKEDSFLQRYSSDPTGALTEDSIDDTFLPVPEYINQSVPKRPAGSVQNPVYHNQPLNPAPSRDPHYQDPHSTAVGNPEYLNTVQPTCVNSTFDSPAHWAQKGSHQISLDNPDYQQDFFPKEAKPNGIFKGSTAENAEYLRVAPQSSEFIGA
Answers are plain numbers, in %.

Examples with answers:
O=C(Nc1n[nH]c2nnc(-c3cccnc3)cc12)C1CC1    -1.02
CS(=O)(=O)CCNCc1ccc(-c2ccc3ncnc(Nc4ccc(OCc5cccc(C(F)(F)F)c5)cc4)c3c2)o1    14.4
CCS(=O)(=O)c1ccc(OC)c(Nc2ncc(-c3cccc(C(C)=O)c3)o2)c1    5.35
COc1cc(Nc2ncc(-c3ccccc3)o2)cc(OC)c1    3.52

# input Fill in the blank: the reported inhibition of COC(=O)Nc1nc2ccc(Oc3ccc(NC(=O)Nc4cc(C(F)(F)F)ccc4F)cc3)cc2s1 is ____.
# output -1.23

* * *

target: Serine/threonine-protein kinase PAK 6 (Homo sapiens) (UniProt Q9NQU5); settings: at 0.1 µM
Sequence (Q9NQU5 whole entry, looked up): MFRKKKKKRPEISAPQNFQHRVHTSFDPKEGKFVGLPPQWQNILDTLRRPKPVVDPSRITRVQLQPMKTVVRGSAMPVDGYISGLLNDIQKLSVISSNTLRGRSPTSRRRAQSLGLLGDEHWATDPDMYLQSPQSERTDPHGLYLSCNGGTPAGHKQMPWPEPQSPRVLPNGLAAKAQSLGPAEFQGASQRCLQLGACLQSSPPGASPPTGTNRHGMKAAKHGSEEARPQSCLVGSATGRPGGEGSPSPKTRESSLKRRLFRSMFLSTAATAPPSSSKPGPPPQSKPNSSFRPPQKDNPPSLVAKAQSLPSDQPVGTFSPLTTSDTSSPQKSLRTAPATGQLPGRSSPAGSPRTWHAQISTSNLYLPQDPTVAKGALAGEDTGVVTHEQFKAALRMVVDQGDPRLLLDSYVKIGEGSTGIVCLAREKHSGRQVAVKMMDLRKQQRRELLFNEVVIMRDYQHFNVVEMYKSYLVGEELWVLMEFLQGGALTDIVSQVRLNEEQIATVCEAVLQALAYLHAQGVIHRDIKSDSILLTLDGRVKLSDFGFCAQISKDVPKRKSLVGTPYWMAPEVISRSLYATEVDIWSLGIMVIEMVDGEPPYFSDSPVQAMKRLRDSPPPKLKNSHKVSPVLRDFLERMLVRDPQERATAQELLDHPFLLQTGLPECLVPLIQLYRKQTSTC
quantity name: inhibition (%)
Give bare numbers, in %.

Examples with answers:
CNC(=O)c1ncccc1Nc1nc(Nc2cc3c(cc2OC)CCCN3C(=O)CN(C)C)nc2[nH]ccc12    11.4
O=C(O[C@H]1CN[C@H](C#Cc2cc3ncnc(Nc4ccc(OCc5cccc(F)c5)c(Cl)c4)c3s2)C1)N1CCOCC1    -7.35
CCS(=O)(=O)c1ccc(OC)c(Nc2ncc(-c3cccc(C(C)=O)c3)o2)c1    7.53

For each of the molecules below, state inhibition.
1. COC(=O)Nc1nc2cc(Oc3ccc(NC(=O)Nc4ccccc4)cc3)ccc2[nH]1
2. CCn1c(-c2nonc2N)nc2cncc(C(=O)NCCNC)c21
3. Cc1c2ccc(N(C)c3ccnc(Nc4cccc(S(N)(=O)=O)c4)n3)cc2nn1C

# output
1: -4.28; 2: 0.36; 3: 2.18

* * *

biological target: Serine/threonine-protein kinase PAK 6 (Homo sapiens) (UniProt Q9NQU5); settings: at 0.1 µM;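 further: mean PAK6 inhibition reported from the GSK PKIS screen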
quantity name: inhibition (%)
One number for each entry, in %.

Examples with answers:
CC(C)c1ccc(-c2cc(-c3c[nH]nc3-c3ccccn3)ccn2)cc1    2.8
CS(=O)(=O)Nc1ccc(-c2ccc3c(NC(=O)C4CC4)n[nH]c3c2)cc1    0.76

Now, please, on to the next compound.
# input Fill in the blank: the reported inhibition of FC(F)(F)CNc1nccc(-c2cnn3ncccc23)n1 is ____.
# output -2.63

* * *

target: Ribosomal protein S6 kinase beta-1 (Homo sapiens); conditions: at 1 µM;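 further: values are mean inhibition of p70S6K1, measured as part of the GSK PKIS panel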
quantity name: inhibition (%)
Numbers only, in %.

Examples with answers:
Cc1cc(O)cc(C)c1/C=C/c1cncc(C(=O)OC(C)(C)C)c1    0.31
CS(=O)(=O)Nc1ccc(-c2cc(-c3ccccc3)cc(C(N)=O)c2N)cc1    0.07
COc1ccc(-c2nn3ncccc3c2-c2ccnc(Nc3ccc(F)c(F)c3)n2)cc1    2.58
COc1cc(N2CCN(C(C)C)CC2)ccc1Nc1nc(Nc2cccc3ncccc23)c2cc[nH]c2n1    2.23
CNC(=O)c1cncc(/C=C/c2ccccc2C)c1    1.97

For each of the molecules below, state inhibition.
1. CC1=C(C(=O)Nc2ccc3[nH]nc(C)c3c2)C(c2ccc(C(F)(F)F)cc2)CC(=O)N1 (stereo unspecified)
2. NS(=O)(=O)c1cccc(N/C=C2\C(=O)Nc3ccccc32)c1
3. Cn1c(-c2nonc2N)nc2cnccc21

# output
[9.4, 8, 66.6]

For each of the molecules below, state inhibition.
1. COc1c(C(N)=O)cc(-c2ccc(Cl)cc2)cc1-c1ccc(S(N)(=O)=O)cc1
2. COC(=O)Nc1nc2ccc(Oc3ccc(NC(=O)Nc4cc(C(F)(F)F)ccc4F)cc3)cc2s1
3. N#Cc1cccc(Nc2ncc(-c3ccccc3)o2)c1
4. CNC(=O)c1ncccc1Nc1nc(Nc2cc3c(cc2OC)CCCN3C(=O)CN(C)C)nc2[nH]ccc12

# output
[4.29, 23.2, 1.42, 3.62]

For each of the molecules below, state inhibition.
1. N#Cc1ccc2c(-c3ccnc(NC4CC4)n3)c(-c3ccc(F)cc3)nn2c1
2. CNC(=O)c1sc(-n2cnc3cc(OC)c(OC)cc32)cc1OCc1ccccc1C(F)(F)F
3. CS(=O)(=O)Nc1ccc(-c2ccc3c(NC(=O)C4CC4)n[nH]c3c2)cc1
4. COc1cc(N2CCN(C(C)C)CC2)ccc1Nc1nc(Nc2cccc(F)c2C(=O)O)c2cc[nH]c2n1
5. Cc1cc(O)cc(C)c1/C=C/c1cncc(C(N)=O)c1
6. OCCCNc1nccc(-c2c(-c3ccc(F)cc3)nn3cc(C(F)(F)F)ccc23)n1
7. Fc1cccc(COc2ccc(Nc3ncncc3C#Cc3ccccc3)cc2Cl)c1

# output
-0.85
0.64
2.83
2.81
0.31
2.94
2.17

For each of the molecules below, state inhibition.
1. Cc1nnc(-c2cccc(-c3ccc(C(=O)NCC4CC4)cc3)c2)o1
2. CN(C)CCNC(=O)Nc1ccc(N(C)c2ccnc(Nc3ccc(CS(C)(=O)=O)cc3)n2)cc1

# output
1. 3.46
2. 1.94
